Assay: Pharmacokinetics of probe substrates in rats with or without poziotinib pre-treatment
Conditions: male, Sprague-Dawley, rat, in vivo, po, 10 mg/kg, MRT(0–∞), Treated group: oral probe cocktail (10 mg/kg; tolbutamide 1 mg/kg) after 7 days oral poziotinib 5 mg/kg, rats, n = 6
Method: Samples were analyzed by a UPLC-MS/MS system equipped with a triple quadrupole mass spectrometer (Waters Corp., Milford, MA, United States) and Acquity UPLC BEH C18 column (1.7 μm, 2.1 × 50 mm) at 40°C. The mobile phase consisted of acetonitrile (A) and 0.1% formic acid (B) with a linear gradient elution at 0.4 ml/min for 3 min. […] Pharmacokinetic parameters were calculated using DAS software (Version 3.2.8). […]
property: MRT inf (h)
Response body: numeric value in h, unit text excluded.

Requested read-out: MRT inf. Entry: Cc1ncc2n1-c1ccc(Cl)cc1C(c1ccccc1F)=NC2 [Midazolam] 2.44
